Where do these numbers come from? They come from patent US20210317140A1.

target: BTK (Homo sapiens, UniProt Q06187); construct: purchased Reaction Biology Corporation; experiment: BTK kinase assay (HotSpot, 33P ATP); type: biochemical; conditions: 0.1 μM compound, 10 μM ATP
Sequence (Q06187 whole entry): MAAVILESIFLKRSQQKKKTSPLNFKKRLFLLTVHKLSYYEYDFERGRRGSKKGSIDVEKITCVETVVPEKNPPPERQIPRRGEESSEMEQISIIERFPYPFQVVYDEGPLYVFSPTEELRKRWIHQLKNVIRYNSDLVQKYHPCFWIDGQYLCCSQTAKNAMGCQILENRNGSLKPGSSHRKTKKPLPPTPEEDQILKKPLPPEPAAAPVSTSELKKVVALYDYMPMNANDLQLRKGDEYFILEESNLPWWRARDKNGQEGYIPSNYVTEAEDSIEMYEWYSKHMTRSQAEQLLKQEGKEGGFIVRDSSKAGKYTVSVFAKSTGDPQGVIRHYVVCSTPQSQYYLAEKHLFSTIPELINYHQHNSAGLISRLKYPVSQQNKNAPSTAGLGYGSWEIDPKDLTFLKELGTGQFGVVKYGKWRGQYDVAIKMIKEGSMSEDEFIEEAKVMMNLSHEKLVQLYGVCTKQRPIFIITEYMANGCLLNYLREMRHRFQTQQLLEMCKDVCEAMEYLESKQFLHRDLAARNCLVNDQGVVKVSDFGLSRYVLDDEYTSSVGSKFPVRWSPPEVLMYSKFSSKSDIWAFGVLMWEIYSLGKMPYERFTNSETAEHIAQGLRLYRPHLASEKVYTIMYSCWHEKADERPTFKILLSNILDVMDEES
Test readout: BTK @ 0.1 μM (% Inh)

compound=Nc1ncnc2c1c(-c1cccc(F)c1)nn2C1Cc2ccccc2C1 unit_text="% Inh" quantitative_result=17.55

P = NC(=O)c1cc(-c2nn(C3CCc4ccccc4C3)c3ncnc(N)c23)cc(O)c1F (stereo not drawn)
Q = Nc1ncnc2c1c(-c1ccc(O)c(O)c1)nn2C1CCc2ccccc2C1 (stereo not drawn)
Hi there, can you help? I need to know whether P or Q has lower measured BTK @ 0.1 μM (% Inh). State your choice using its label. P
